- experimental-details: Actual solubility in aqueous buffers / cosolvent (HPLC, spectrophotometer)
- Assay type: physicochemical
- condition-summary: aqueous citrate buffer, pH 7.1, aqueous buffer, thermodynamic from solid, aqueous citrate buffer (pH 7.1); read-out: actual solubility
recorded-metric: solubility

1) CCCCCCC(C)(C)c1cc(O)c([C@H]2CC(=O)C3CC2C3(C)C)c(OC(=O)CCC(=O)O)c1 (single isomer, unassigned; (-)) [Compound 18B] :: ≤ 95 µg/mL

====

- target-desc: CB2 receptor (Homo sapiens, UniProt P34972)
- Sequence (P34972 whole entry): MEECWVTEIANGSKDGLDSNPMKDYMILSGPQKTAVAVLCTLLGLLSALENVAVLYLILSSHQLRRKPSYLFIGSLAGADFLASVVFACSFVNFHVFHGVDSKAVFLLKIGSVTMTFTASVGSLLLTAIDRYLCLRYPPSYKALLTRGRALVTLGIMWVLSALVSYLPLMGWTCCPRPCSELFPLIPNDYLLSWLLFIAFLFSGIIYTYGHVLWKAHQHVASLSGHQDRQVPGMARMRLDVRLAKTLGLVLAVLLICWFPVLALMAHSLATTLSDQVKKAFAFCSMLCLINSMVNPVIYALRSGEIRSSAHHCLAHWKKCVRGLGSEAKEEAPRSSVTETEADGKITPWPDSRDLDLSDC
- experimental-details: CB2 binding assay
recorded-metric: IC50 (nM)

1) CCCCCCC(C)(C)c1cc(O)c([C@H]2CC(=O)C3CC2C3(C)C)c(OC(=O)/C=C/C(=O)O)c1 (single isomer, unassigned; (-)) [Compound 18F] :: 9
2) CCCCCCC(C)(C)c1cc(OC(=O)CCC(=O)O)c([C@H]2CC(=O)C3CC2C3(C)C)c(OC(=O)CCC(=O)O)c1 (single isomer, unassigned; (-)) [Compound 18C] :: 1.52
3) CCCCCCC(C)(C)c1cc(O)c([C@H]2CC(=O)[C@H]3C[C@@H]2C3(C)C)c(O)c1 [Compound 18A] :: 1
4) CCCCCCC(C)(C)c1cc(O)c([C@H]2CC(=O)C3CC2C3(C)C)c(OC(=O)CCC(=O)O)c1 (single isomer, unassigned; (-)) [Compound 18B] :: 1.2
5) CCCCCCC(C)(C)c1cc(OC(=O)/C=C/C(=O)O)c(C2CC(=O)[C@H]3C[C@@H]2C3(C)C)c(OC(=O)/C=C/C(=O)O)c1 (single isomer, unassigned; (-)) [Compound 18G] :: 30
